From: patent US9796711B2

target: ΔF508-CFTR (Homo sapiens, UniProt P13569, DEL508-508); construct: host or cells: CFBE41o-, doxycycline-inducible; experiment: CFTR cell surface levels using HRP-tagged ΔF508-CFTR expressing CFBE cells, in the presence of a co-corrector; assay type: cell-based; conditions: HRP-tagged ΔF508-CFTR expressing CFBE cells, in the presence of 3 μM co-corrector; read-out: EC50
Sequence (P13569 with tags, fused parts or gaps DEL508-508): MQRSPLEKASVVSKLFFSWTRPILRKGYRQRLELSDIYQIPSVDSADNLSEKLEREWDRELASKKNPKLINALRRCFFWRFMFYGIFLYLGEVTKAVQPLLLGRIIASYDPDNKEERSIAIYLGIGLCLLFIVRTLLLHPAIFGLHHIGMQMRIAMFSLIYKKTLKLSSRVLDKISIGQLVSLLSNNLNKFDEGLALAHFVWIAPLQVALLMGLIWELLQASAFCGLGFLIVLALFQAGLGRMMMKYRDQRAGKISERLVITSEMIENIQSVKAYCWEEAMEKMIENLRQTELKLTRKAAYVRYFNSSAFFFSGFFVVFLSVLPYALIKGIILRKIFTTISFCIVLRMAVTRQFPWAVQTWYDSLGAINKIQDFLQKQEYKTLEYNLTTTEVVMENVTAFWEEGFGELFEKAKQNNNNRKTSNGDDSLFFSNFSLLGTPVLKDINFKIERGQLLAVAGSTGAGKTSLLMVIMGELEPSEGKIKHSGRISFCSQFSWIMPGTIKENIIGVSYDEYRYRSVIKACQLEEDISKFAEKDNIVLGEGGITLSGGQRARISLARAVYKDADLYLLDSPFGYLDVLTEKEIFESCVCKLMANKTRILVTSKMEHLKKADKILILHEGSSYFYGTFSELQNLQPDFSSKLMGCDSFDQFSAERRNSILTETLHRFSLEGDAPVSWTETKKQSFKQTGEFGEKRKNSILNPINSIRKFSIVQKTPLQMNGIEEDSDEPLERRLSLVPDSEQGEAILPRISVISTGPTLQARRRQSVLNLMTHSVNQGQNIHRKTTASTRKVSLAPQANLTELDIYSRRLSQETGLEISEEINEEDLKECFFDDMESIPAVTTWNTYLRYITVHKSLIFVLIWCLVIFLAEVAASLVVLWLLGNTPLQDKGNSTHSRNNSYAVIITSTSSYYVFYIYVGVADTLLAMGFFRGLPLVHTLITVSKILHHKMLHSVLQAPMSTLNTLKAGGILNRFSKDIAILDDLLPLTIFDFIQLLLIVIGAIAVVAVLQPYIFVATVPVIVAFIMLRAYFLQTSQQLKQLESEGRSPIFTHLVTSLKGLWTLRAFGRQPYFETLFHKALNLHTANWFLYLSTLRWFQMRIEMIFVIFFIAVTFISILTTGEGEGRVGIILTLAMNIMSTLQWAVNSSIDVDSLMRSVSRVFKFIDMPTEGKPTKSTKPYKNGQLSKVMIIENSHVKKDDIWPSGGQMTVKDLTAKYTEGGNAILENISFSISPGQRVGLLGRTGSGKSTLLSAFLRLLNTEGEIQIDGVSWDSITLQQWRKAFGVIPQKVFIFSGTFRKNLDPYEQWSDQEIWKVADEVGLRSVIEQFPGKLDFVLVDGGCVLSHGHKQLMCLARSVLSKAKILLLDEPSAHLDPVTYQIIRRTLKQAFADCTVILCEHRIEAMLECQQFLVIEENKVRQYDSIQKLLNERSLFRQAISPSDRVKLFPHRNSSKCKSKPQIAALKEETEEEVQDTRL
pEC50: −log10 of the molar value.
# if value of pEC50 reaches 6, tag true (1); if it stays below, tag false (0)

q: Determine whether this compound has pEC50 no lower than 6: COCC1(F)CCCN(c2cc(C(=O)O)nc3c2c(C2CCC2)nn3-c2ccccc2)C1 (stereo not shown) [compound 595]
a: true (1)

q: Determine whether this compound has pEC50 no lower than 6: O=C(O)c1cc(N2CCOC(C(F)(F)F)C2)c2c(C3CCC3)nn(-c3ccccc3)c2n1 (stereo not shown) [compound 596]
a: true (1)

q: Determine whether this compound has pEC50 no lower than 6: CC(C)c1nn(C2CCCCC2)c2nc(C(=O)O)cc(-c3ccc(N(C)C4CCOCC4)cc3)c12 [compound 254]
a: true (1)

q: Determine whether this compound has pEC50 no lower than 6: Cc1nn(-c2ccccc2)c2nc(C(=O)O)cc(O[C@H]3C[C@@H](N(C)C)C3)c12 [compound 340]
a: false (0)

q: Determine whether this compound has pEC50 no lower than 6: CS(=O)(=O)C1(COc2cc(C(=O)O)nc3c2c(C2CCC2)nn3-c2ccccc2)CCOCC1 [compound 627]
a: false (0)

q: Determine whether this compound has pEC50 no lower than 6: Cc1nn(-c2ccccc2)c2nc(C(=O)O)cc(OCC3(CF)CC3)c12 [compound 387]
a: false (0)

q: Determine whether this compound has pEC50 no lower than 6: CN(C)C(=O)CN1CCN(c2cc(C(=O)O)nc3c2c(C2CCC2)nn3-c2ccccc2)CC1 [compound 559]
a: false (0)

q: Determine whether this compound has pEC50 no lower than 6: O=C(O)c1cc(N2CCC(N3CCOCC3)CC2)c2c(C3CCC3)nn(-c3ccc(OC(F)F)cc3)c2n1 [compound 914]
a: true (1)

q: Determine whether this compound has pEC50 no lower than 6: Cc1nn(-c2ccccc2)c2nc(C(=O)O)cc(OCC3(C)COC3)c12 [compound 375]
a: false (0)

q: Determine whether this compound has pEC50 no lower than 6: CN(C[C@@H]1CCN(c2cc(C(=O)O)nc3c2c(C2CCC2)nn3-c2ccccc2)C1)C(=O)OC(C)(C)C [compound 674]
a: true (1)

q: Determine whether this compound has pEC50 no lower than 6: O=C(O)c1cc(N2CCC(N3CCOCC3)CC2)c2c(C3CCC3)nn(-c3ccnc(OCc4ccccc4)c3)c2n1 [compound 856]
a: true (1)

* * *

Please respond with reported EC50 for every item in the list.
biological target: ΔF508-CFTR (Homo sapiens, UniProt P13569, DEL508-508); construct: host or cells: CFBE41o-, doxycycline-inducible; assay: CFTR cell surface levels using HRP-tagged ΔF508-CFTR expressing CFBE cells, intrinsic corrector capacity; type: cell-based; conditions: HRP-tagged ΔF508-CFTR CFBE41o- cells, compounds alone (intrinsic corrector capacity), 20 hours at 33° C.; read-out: EC50
Just the number please, in nM, no unit attached.

q: What value of EC50 has been reported for the following compound? CC(C)Oc1nn(-c2ccccc2)c2nc(C(=O)O)cc(-c3ccc(N4CCOCC4)cc3)c12
a: 585

q: What value of EC50 has been reported for the following compound? CC(C)c1nn(-c2cccc(N3CCCC3)c2)c2nc(C(=O)O)cc(-c3ccc(N4CCC(C#N)CC4)nc3)c12
a: 433

q: What value of EC50 has been reported for the following compound? CC(C)c1nn(-c2cccc(N(C)C)c2)c2nc(C(=O)O)cc(-c3ccc(N4CCC(C#N)CC4)nc3)c12
a: 701

q: What value of EC50 has been reported for the following compound? CC(C)c1nn(-c2cc(F)cc(F)c2)c2nc(C(=O)O)cc(-c3ccc(N(C)C4CCOCC4)nc3)c12
a: 464

q: What value of EC50 has been reported for the following compound? CC(C)c1nn(C2CCCCC2)c2nc(C(=O)O)cc(N3CCCCC3)c12
a: 1240

q: What value of EC50 has been reported for the following compound? CC(C)c1nn(-c2cc(F)cc(F)c2)c2nc(C(=O)O)cc(-c3ccc(N(C)C4CCOCC4)cc3)c12
a: 777

* * *

molecular target: ΔF508-CFTR (Homo sapiens, UniProt P13569, DEL508-508); construct: host or cells: CFBE41o-, doxycycline-inducible; assay: CFTR cell surface levels using HRP-tagged ΔF508-CFTR expressing CFBE cells, in the presence of a co-corrector; assay type: cell-based; details: HRP-tagged ΔF508-CFTR expressing CFBE cells, in the presence of 3 μM co-corrector
# if value of % Activation reaches 300%, tag class 1; if it stays below, tag class 0

q: Determine whether this molecule has % Activation no lower than 300%: CN(C1CCN(c2cc(C(=O)O)nc3c2c(C2CCC2)nn3-c2ccccc2)CC1)C1COC1
a: class 1

q: Determine whether this molecule has % Activation no lower than 300%: CC(C)Oc1nn(C2CCCCC2)c2nc(C(=O)O)cc(-c3ccc(N4CCN(C)CC4)cc3)c12
a: class 1

q: Determine whether this molecule has % Activation no lower than 300%: Cc1nn(-c2ccccc2)c2nc(C(=O)O)cc(-c3ccc(N4CC(C)OC(C)C4)cc3)c12 (stereo not shown)
a: class 1

q: Determine whether this molecule has % Activation no lower than 300%: O=C1CN(c2cc(C(=O)O)nc3c2c(C2CCC2)nn3-c2ccccc2)CCN1
a: class 0

q: Determine whether this molecule has % Activation no lower than 300%: COC(=O)N1CCC(n2nc(C(C)C)c3c(-c4ccc(N5CCOCC5)cc4)cc(C(=O)O)nc32)C1 (stereo not shown)
a: class 0

q: Determine whether this molecule has % Activation no lower than 300%: O=C(O)c1cc(N2CC3(CCCC3)C2)c2c(C3CCC3)nn(-c3ccccc3)c2n1
a: class 0

q: Determine whether this molecule has % Activation no lower than 300%: Cc1nn(-c2ccccc2)c2nc(C(=O)O)cc(-c3ccc(N(C)C4CCC4)cc3)c12
a: class 1

q: Determine whether this molecule has % Activation no lower than 300%: CC(C)(C)OC(=O)N1CCCC1c1nn(-c2ccccc2)c2nc(C(=O)O)cc(-c3ccc(N4CCOCC4)cc3)c12 (stereo not shown)
a: class 0

q: Determine whether this molecule has % Activation no lower than 300%: CC(C)c1nn(C2CCCCC2)c2nc(C(=O)O)cc(-c3cn[nH]c3)c12
a: class 0

q: Determine whether this molecule has % Activation no lower than 300%: CCN(CC)CCCOc1cc(C(=O)O)nc2c1c(C1CCC1)nn2-c1ccccc1
a: class 0

q: Determine whether this molecule has % Activation no lower than 300%: Cc1ncn(C)c(=O)c1CCN1CCN(c2cc(C(=O)O)nc3c2c(C2CCC2)nn3-c2ccccc2)CC1
a: class 1

q: Determine whether this molecule has % Activation no lower than 300%: N#CC1CCN(c2ccc(-c3cc(C(=O)O)nc4c3c(C3CCC3)nn4-c3cccc(N4CCCC4)c3)cn2)CC1
a: class 1

q: Determine whether this molecule has % Activation no lower than 300%: O=C(O)c1cc(N2CCCN(C3CCCC3)CC2)c2c(C3CCC3)nn(-c3ccccc3)c2n1
a: class 0

q: Determine whether this molecule has % Activation no lower than 300%: COCCC1CCN(c2cc(C(=O)O)nc3c2c(C(C)C)nn3-c2cccc(C)c2)CC1
a: class 1

q: Determine whether this molecule has % Activation no lower than 300%: Cc1cccc(-n2nc(C(C)C)c3c(N4CCC5C(CCN5CC#N)C4)cc(C(=O)O)nc32)c1 (stereo not shown)
a: class 1

* * *

Please respond with reported pEC50 for every item in the list.
biological target: ΔF508-CFTR (Homo sapiens, UniProt P13569, DEL508-508); construct: host or cells: CFBE41o-, doxycycline-inducible; assay: CFTR cell surface levels using HRP-tagged ΔF508-CFTR expressing CFBE cells, in the presence of a co-corrector; format: cell-based; settings: HRP-tagged ΔF508-CFTR expressing CFBE cells, in the presence of 3 μM co-corrector; read-out: EC50
The scale used: pEC50 is minus the common logarithm of the concentration in molar units.

q: What value of pEC50 has been reported for the following compound? Cc1nn(-c2ccccc2)c2nc(C(=O)O)cc(OCC3(S(C)(=O)=O)CCC3)c12
a: 5.30

q: What value of pEC50 has been reported for the following compound? CC(C)c1nn(-c2cccc(F)c2)c2nc(C(=O)O)cc(-c3ccc(N(C)C4CCOCC4)cc3)c12
a: 6.55

q: What value of pEC50 has been reported for the following compound? CN1CCCC(CN(C)c2cc(C(=O)O)nc3c2c(C2CCC2)nn3-c2ccccc2)C1 (stereo not shown)
a: 5.93

q: What value of pEC50 has been reported for the following compound? CC(C)(O)c1nn(-c2ccccc2)c2nc(C(=O)O)cc(-c3ccc(N4CCOCC4)cc3)c12
a: 5.48

q: What value of pEC50 has been reported for the following compound? CN1CCC[C@H](Oc2cc(C(=O)O)nc3c2c(C2CCC2)nn3-c2ccccc2)C1
a: 5.94

q: What value of pEC50 has been reported for the following compound? CC(=O)N1CCC(F)(COc2cc(C(=O)O)nc3c2c(C2CCC2)nn3-c2ccccc2)CC1
a: 5.73

q: What value of pEC50 has been reported for the following compound? COCCN(C)c1cc(C(=O)O)nc2c1c(C(C)C)nn2-c1cccc(C)c1
a: 6.10

q: What value of pEC50 has been reported for the following compound? CC(C)c1nn(-c2cccc(C(F)(F)F)c2)c2nc(C(=O)O)cc(-c3cnc(N(C)C4CCOCC4)nc3)c12
a: 6.04

q: What value of pEC50 has been reported for the following compound? Cc1nn(C2CCCC2)c2nc(C(=O)O)cc(-c3ccc(N4CCOCC4)nc3)c12
a: 5.58

q: What value of pEC50 has been reported for the following compound? O=C(O)c1cc(N2CCC(CCN3CCCC3)CC2)c2c(C3CCC3)nn(-c3ccccc3)c2n1
a: 6.72

q: What value of pEC50 has been reported for the following compound? CC(C)COC1CCN(c2cc(C(=O)O)nc3c2c(C(C)C)nn3-c2ccc(F)cc2)CC1
a: 6.52

q: What value of pEC50 has been reported for the following compound? CC1(N2CCCCC2)CCN(c2cc(C(=O)O)nc3c2c(C2CCC2)nn3-c2ccccc2)CC1
a: 6.13

q: What value of pEC50 has been reported for the following compound? CC(C)c1nn(-c2cccc(F)c2)c2nc(C(=O)O)cc(-c3ccc(N4CCC(C#N)CC4)cc3)c12
a: 6.59

q: What value of pEC50 has been reported for the following compound? CC(=O)N1CCC(COc2cc(C(=O)O)nc3c2c(C(C)C)nn3-c2ccc(F)cc2)CC1
a: 5.64

q: What value of pEC50 has been reported for the following compound? CC(C)c1nn(C2CCCCC2)c2nc(C(=O)O)cc(-c3cnc(N(C)C)nc3)c12
a: 5.77

q: What value of pEC50 has been reported for the following compound? CC(C)c1nn(-c2cccc(N(C)C)c2)c2nc(C(=O)O)cc(-c3ccc(N4CCC(C#N)CC4)nc3)c12
a: 6.16

q: What value of pEC50 has been reported for the following compound? CC(=O)Nc1ccc(-c2cc(C(=O)O)nc3c2c(C(C)C)nn3C2CCCCC2)cc1
a: 5.97

q: What value of pEC50 has been reported for the following compound? O=C(O)c1cc(N2CC3(CCCCO3)C2)c2c(C3CCC3)nn(-c3ccccc3)c2n1
a: 6.08

q: What value of pEC50 has been reported for the following compound? O=C(O)c1cc(N2CCC(N3CCCC(C(=O)N4CCOCC4)C3)CC2)c2c(C3CCC3)nn(-c3ccccc3)c2n1 (stereo not shown)
a: 5.95

q: What value of pEC50 has been reported for the following compound? CC(C)c1nn(-c2cccc(N3CCCC3)c2)c2nc(C(=O)O)cc(-c3ccc(N4CCC(C#N)CC4)cc3)c12
a: 6.55

q: What value of pEC50 has been reported for the following compound? CN1CCOC(C2CN(c3cc(C(=O)O)nc4c3c(C3CCC3)nn4-c3ccccc3)C2)C1 (stereo not shown)
a: 5.98

q: What value of pEC50 has been reported for the following compound? Cc1nn(C2CCCCC2)c2nc(C(=O)O)cc(-c3cnc(N4CCOCC4)nc3)c12
a: 5.64

q: What value of pEC50 has been reported for the following compound? Cc1nn(-c2ccccc2)c2nc(C(=O)O)cc(N3CCC([C@H](F)CN(C)C)CC3)c12
a: 5.60

q: What value of pEC50 has been reported for the following compound? CC(C)c1nn(-c2ccc(F)cc2)c2nc(C(=O)O)cc(N3CCN(C4CCN(C5CC5)CC4)CC3)c12
a: 5.91

q: What value of pEC50 has been reported for the following compound? O=C(O)c1cc(N2CCC(N3CCOCC3)CC2)c2c(C3CCC3)nn(-c3cccc(OC(F)F)c3)c2n1
a: 7.10

q: What value of pEC50 has been reported for the following compound? CC(C)c1nn(C2CCCCC2)c2nc(C(=O)O)cc(-c3cn[nH]c3)c12
a: 5.63

q: What value of pEC50 has been reported for the following compound? COCC1(OC)CCN(c2cc(C(=O)O)nc3c2c(C2CCC2)nn3-c2ccccc2)CC1
a: 6.43

q: What value of pEC50 has been reported for the following compound? Cc1nn(-c2ccccc2)c2nc(C(=O)O)cc(N3CC[C@@H](F)C3)c12
a: 5.61

q: What value of pEC50 has been reported for the following compound? N#CC1CCN(c2ccc(-c3cc(C(=O)O)nc4c3c(C3CCC3)nn4-c3cccc(N4CCCC4)c3)cn2)CC1
a: 6.37

q: What value of pEC50 has been reported for the following compound? O=C(O)c1cc(N2CCCN(C3CCCC3)CC2)c2c(C3CCC3)nn(-c3ccccc3)c2n1
a: 5.78

q: What value of pEC50 has been reported for the following compound? CC(C)c1nn(-c2cccc(N(C)C)c2)c2nc(C(=O)O)cc(-c3ccc(N4CCOCC4)nc3)c12
a: 6.15
